Test system: PAD
Assay: qHTS profiling for inhibitors of Plasmodium falciparum proliferation (AID 504749); note: nearly all actives have a fitted effect of over 60% in size
Settings: P. falciparum in erythrocytes, SYBR Green DNA, 72 h; series mostly up to 28.7 µM
Results filed as inconclusive are left out. Activity calls are given as the source filed them. Calls come from the whole dose curve; as a rule, active = well fitted inhibition curve with a large enough effect; inconclusive = small, poorly fitted or top-dose-only effect; inactive = flat fitted curve, though single readings scatter.
Outcomes: active, inactive

O[C@H]1[C@H]2[C@H](O)CCCN2C[C@H]1O | inactive
CN1C2CCC1CC(OC(c1ccccc1)c1ccc(Cl)cc1)C2 (stereo unspecified) | active
c1ccc2cc(CC3=NCCN3)ccc2c1 | inactive
O=[N+]([O-])c1ccccc1 | inactive
O=[N+]([O-])C(Br)(CO)CO | inactive
[O]=[Cd] | inactive
CCC1(c2ccccc2)C(=O)NC(=O)NC1=O | inactive
CCN(CC)C(=O)/C(Cl)=C(\C)OP(=O)(OC)OC | inactive
O=C(CCl)c1ccc(Oc2ccc(C(=O)CCl)cc2)cc1 | inactive
CC(Cc1ccccc1)NC=O (stereo unspecified) | inactive
CCOc1ccc2c3c1O[C@H]1[C@@H](O)C=C[C@H]4[C@@H](C2)N(C)CC[C@@]341 | inactive
O=C(OCCN1CCCCC1)C(O)(c1ccccc1)c1ccccc1 | inactive
Cc1sc2ccccc2c1CC1=NCCN1 | inactive
NCC(O)c1cccc(O)c1 (stereo unspecified) | inactive
CCCC(C)(COC(N)=O)COC(=O)NC1CC1 (stereo unspecified) | inactive
C#CC(C)(O)CC (stereo unspecified) | inactive
ClCC1CO1 (stereo unspecified) | inactive
FC(F)OC(F)(F)C(F)Cl (stereo unspecified) | inactive
CCOC(=O)c1ccccc1C(=O)OCC | inactive
CCOP(=O)(OCC)O/C(=C/Cl)c1ccc(Cl)cc1Cl | inactive
CC(N)Cc1ccc(O)cc1 (stereo unspecified) | inactive
Oc1cc(Cl)c(Cl)cc1Cl | inactive
O=c1[nH]c(=O)n(Cl)c(=O)n1Cl | inactive
Cn1sc(Cl)cc1=O | inactive
COC1=CC=C2[C@H]3Cc4ccc(OC)c5c4[C@@]2(CCN3C)[C@H]1O5 | inactive
CCC(=O)O[C@@](Cc1ccccc1)(c1ccccc1)[C@@H](C)CN(C)C | inactive
CCC1C(C)=NN=C(c2ccc(OC)c(OC)c2)c2cc(OC)c(OC)cc21 (stereo unspecified) | inactive
C=CCN=C=S | inactive
ClC1C(Cl)C(Cl)C(Cl)C(Cl)C1Cl (stereo unspecified) | inactive
CC(=O)O[C@H]1CC[C@H]2[C@@H]3CCC4=CC(=O)CCC4=C3C=C[C@]12C | inactive
O=C1CN(O)C(c2ccccc2)=c2cc(Cl)ccc2=N1 | inactive
CCC(N)Cc1c[nH]c2ccccc12 (stereo unspecified) | inactive
S=C=S | inactive
CC(=O)OO | inactive
CCON=O | inactive
O=CC=O | inactive
CCNC(C)Cc1cccc(C(F)(F)F)c1 (stereo unspecified) | inactive
Clc1ccccc1Cl | inactive
O=C(O)C(Cl)(Cl)Cl | inactive
[O]=[Cr](=[O])([OH])[O][Cr](=[O])(=[O])[OH] | inactive
O=[N+]([O-])c1ccc(F)c([N+](=O)[O-])c1 | inactive
C[C@]12CCC(=O)C[C@@H]1CC[C@@H]1[C@@H]2CC[C@]2(C)[C@@H](O)CC[C@@H]12 | inactive
COc1ccc(OC)c(C(O)C(C)N)c1 (stereo unspecified) | inactive
CC[N+](C)(CC)CCOC(=O)C(O)(c1ccccc1)c1ccccc1 | inactive
S=C(S)N1CCNCC1 | inactive
O=C/C=C/c1ccccc1 | inactive

###

Test system: DIV14
Assay: qHTS profiling for inhibitors of Plasmodium falciparum proliferation (AID 504749); note: nearly all actives have a fitted effect of over 60% in size
Conditions: P. falciparum in erythrocytes, SYBR Green DNA, 72 h; series mostly up to 28.7 µM
Records with an inconclusive call do not appear. Activity calls are given as the source filed them. The call rests on the fitted dose curve; in most records, active means well fitted inhibition curve with a large enough effect; inconclusive means small, poorly fitted or top-dose-only effect; inactive means flat fitted curve, though single readings scatter.
Outcomes: TRUE (active), FALSE (inactive)

NCC(O)c1cccc(O)c1 (stereo unspecified) | FALSE
CN1[C@@H]2CC[C@H]1CC(OC1c3ccccc3CCc3ccccc31)C2 (stereo partly specified) | TRUE
[O]=[Cd] | FALSE
COC1=CC=C2[C@H]3Cc4ccc(OC)c5c4[C@@]2(CCN3C)[C@H]1O5 | FALSE
CCOC(=O)c1ccccc1C(=O)OCC | FALSE
CC(C)(O)C1C2OC(=O)C1C1(O)CC3OC34C(=O)OC2C14C (stereo unspecified) | FALSE
CC(=O)OC1CN2CCC1CC2 (stereo unspecified) | FALSE
CC(C)Nc1ccc(Nc2ccccc2)cc1 | TRUE
Clc1ccc(C2(Cn3cncn3)OCCO2)c(Cl)c1 | FALSE
C#CC(C)(O)CC (stereo unspecified) | FALSE
O=[N+]([O-])c1cc(I)c(O)c(I)c1 | FALSE
Cn1sc(Cl)cc1=O | FALSE
CN1C2CCC1CC(OC(c1ccccc1)c1ccc(Cl)cc1)C2 (stereo unspecified) | TRUE
O=P(O)(O)C(Cl)(Cl)P(=O)(O)O | FALSE
[O]=[Cr](=[O])([OH])[O][Cr](=[O])(=[O])[OH] | FALSE
CCC(N)Cc1c[nH]c2ccccc12 (stereo unspecified) | FALSE
O=CC=O | FALSE
N#CN | FALSE
C=CCN(C1=NCCN1)c1c(Cl)cccc1Cl | FALSE
C=CCN1CC[C@]23c4c5ccc(O)c4O[C@H]2[C@@H](O)C=C[C@H]3[C@H]1C5 | FALSE
C[N+]1(C)C2CCC1CC(OC(=O)c1c[nH]c3ccccc13)C2 (stereo unspecified) | FALSE

###

Test system: NIH3T3
Assay: qHTS assay to identify novel small-molecules to repurpose for Merkel cell carcinoma treatment (AID 1296009); note: nearly all actives have a fitted effect of over 60% in size
Conditions: MCC and control cell lines, CellTiter-Glo viability, 72 h; at 44.8 µM (top of the series) unless noted
Results filed as inconclusive are left out. The source made the active and inactive calls. The call rests on the fitted dose curve; in most records, active means well fitted inhibition curve with a large enough effect; inconclusive means small, poorly fitted or top-dose-only effect; inactive means flat fitted curve, though single readings scatter.
observedProperty: outcome

CN1CCCC1CCOC(c1cc2nccc(C(=O)O)c2[nH]1)c1ccccc1Cl (stereo not given) | inactive
CC(N)Cc1c[nH]c2ccccc12 (stereo not given) | inactive
CC(C)(C)c1cc(C(C)(C)C)c2c(c1)C(O)(C(F)(F)F)C(=O)O2 (stereo not given) | inactive
CCC(C)(OC(C)=O)C(=O)O[C@H]1[C@H](OC(C)=O)C[C@@H]2[C@@](C)([C@@H]3C[C@H]4C=CO[C@H]4O3)[C@H](C)C[C@H](OC(C)=O)[C@@]2(COC(C)=O)[C@@]12CO2 (stereo not given in full) | inactive [at 17.4 µM]
CN1CCC[C@@H]1Cc1c[nH]c2ccc(Nc3ncccc3[N+](=O)[O-])cc12 | inactive
C[C@@]1(C(=O)O)CC[C@]2(C)CC[C@]3(C)C4=CC(=O)c5cc(O)c(O)cc5[C@]4(C)CC[C@@]3(C)[C@@H]2C1 | inactive [at 17.4 µM]
CCc1[nH]c2ccc(OC)cc2c1CCN(C)C | inactive
COc1cc(C(=O)O[C@H]2[C@@H]3C=CO[C@@H](O[C@@H]4O[C@H](CO)[C@@H](O)[C@H](O)[C@H]4O)[C@@H]3[C@@]3(CO)O[C@@H]23)ccc1O | inactive [at 17.4 µM]
CN(C)CCc1c[nH]c2ccc(CN3CCN(C)S3(=O)=O)cc12 | inactive
CN1C(=O)N(c2ccc(C#N)c(C(F)(F)F)c2)C(=O)[C@]1(CO)c1ccccc1 | inactive
CC(C)[C@@H](CN1CC[C@@](C)(c2cccc(O)c2)[C@@H](C)C1)NC(=O)[C@H]1Cc2ccc(O)cc2CN1 | inactive
COC(=O)N1CCN(C(=O)Cc2ccc(Cl)c(Cl)c2)[C@@H](CN2CCCC2)C1 | inactive
CN(C(=O)Cc1ccccc1)C(CN1CCCC1)c1ccccc1 (stereo not given) | inactive
CN1[C@@H]2CC[C@H]1CC(OC(=O)C1C=Nc3ccccc31)C2 (stereo not given in full) | inactive

###

Assay: High Content Imaging Cell-Based qHTS for Inhibitors of the mTORC1 Signaling Pathway in MEF (Tsc2-/-, p53-/-) Cells (AID 2666);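 note: percent of cells scored positive for phospho-rpS6 Ser235/236 immunostaining by imaging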
Details: series mostly up to 38.3 µM
Records with an inconclusive call do not appear. Active and inactive are the calls of the source. Calls come from the whole dose curve; as a rule, active = well fitted inhibition curve with a large enough effect; inconclusive = small, poorly fitted or top-dose-only effect; inactive = flat fitted curve, though single readings scatter.
observedProperty: outcome

Cc1cc([C@@H]2CCCN2C)on1 | inactive
C=CCN(C1=NCCN1)c1c(Cl)cccc1Cl | inactive
O=[N+]([O-])c1cc(O)c(O)c([N+](=O)[O-])c1 | inactive
CC(C)(C)c1o[nH]c(=O)c1CC(N)C(=O)O (stereo unspecified) | inactive
CC(C)[C@@]1(NC(=O)[C@@H]2C[C@@H]3c4cccc5[nH]cc(c45)C[C@H]3N(C)C2)O[C@@]2(O)[C@@H]3CCCN3C(=O)[C@H](Cc3ccccc3)N2C1=O | inactive
CCCN(CCC)[C@@H]1CCc2cccc(O)c2C1 | inactive
C[N+]1(C)CCOC(O)(c2ccc(-c3ccc(C4(O)C[N+](C)(C)CCO4)cc3)cc2)C1 (stereo unspecified) | inactive
OCc1cnc[nH]1 | inactive
C[C@]12Cc3cn4c(nc3C=C1CCC1C2CC[C@@]2(C)[C@H]1CC[C@@]2(O)C#N)nc1ccccc14 (stereo partly specified) | inactive
NNC(=O)c1ccc(O)cc1 | inactive
C[N+](C)(C)CCOC(=O)CBr | inactive

Data origin: PubChem BioAssay (NCATS)
